System: SK-MEL-5
Experiment: NCI tumour cell line growth inhibition, 48 h
The source made the active and inactive calls. No stated cut-off is given here; in the data, active = GI50 up to about 1.1 µM and inactive = higher.
Recorded GI50, one value per entry.

Some compounds with known GI50 results, for comparison:
OC1=CN=C(C2CC2)Oc2ccccc21    > 100 µM (inactive)
C=CCc1cccc2cc(C(=O)NCc3ccccc3)c(=N)oc12    25.5 µM (inactive)

Okay, now this compound:
**Query** Value lookup for GI50; key = O=C(CCN1CCN(c2cccc(Cl)c2)CC1)N1CCc2c([nH]c3ccccc23)C1c1cccnc1 (stereo not drawn)
**Result** 6.25 µM (inactive)

* * *

System: MCF7
Assay: NCI tumour cell line growth inhibition, 48 h
Calls of active or inactive are those of the source. No stated cut-off is given here; in the data, active = GI50 up to about 1.1 µM and inactive = higher.
Log the outcome using a class from T = active, F = inactive

Solved cases below.
CC(C)[C@@H]1NC(=O)[C@@H]2N=C(O[C@H]2C)[C@H](C(C)C)NC(=O)C2N=C1O[C@H]2C    F
c1ccc(C2OCC(OC3CCCCO3)CO2)cc1 (stereo not drawn)    F
CC1C2(C)OCC(C#N)(C(=N)O2)C1(C#N)C#N (stereo not drawn)    F
COc1ccc(-n2c(SC(CN3CCOCC3)CN3CCCC3=O)nc3ccccc3c2=O)cc1 (stereo not drawn)    F
CC1(C)C2CCC3CC(CCC#N)CCC3C21C#N (stereo not drawn)    F

Here is another compound to look at.
**Query** Tell me the recorded outcome of this test for O=S(=O)(CCC[C@H]1[C@@H](CCOCc2ccccc2)C2CCCN1O2)c1ccccc1 (stereo partly drawn) .
**Result** F

* * *

System: SF-295
Assay: NCI tumour cell line growth inhibition, 48 h
Calls of active or inactive are those of the source. No stated cut-off is given here; in the data, active = GI50 up to about 1.1 µM and inactive = higher.
I would appreciate it if you answered using one of these outcomes: true for active, false for inactive

Recorded results for 8 molecules are shown here.
CCC/C=C/C=C/C(=O)OC1C(C)C2(O)C3C=C(C)C(=O)C3CC(COC(C)=O)=CC2C2C(C)(C)C12OC(=O)C(C)C (centres undefined)    true
Cc1cc(O)c(C=O)c(C)c1CCC1(C)C=Cc2cc(O)ccc2O1 (centres undefined)    false
CN(C)c1c(Cl)c(=O)oc2c1ccc1nc(-c3ccccc3)sc12    false
O=C(Nc1nc2ncn(CC(COc3ccccc3)OC(=O)c3ccccc3)c2c(=O)[nH]1)c1ccccc1 (centres undefined)    false
Nc1nc(N)c2nc(CNc3ccc(C(=O)NC(CCC(=O)O)C(=O)O)cc3F)cnc2n1 (centres undefined)    true
NCCNCCNCc1c2ccccc2c(CNCCNCCN)c2ccccc12    false
CN(C)c1ccc(-c2nc(-c3cc4c(ccc5ccccc54)oc3=O)cs2)cc1    false
O=C(/C=C/c1ccc([N+](=O)[O-])cc1)N1CCN(CCOC(c2ccc(F)cc2)c2ccc(F)cc2)CC1    false

**Query** For "N=c1c2c(=S)n(-c3ccccc3)c(=S)n(-c3ccccc3)c2nc(SCCN2CCOCC2)n1-c1ccccc1" , what call appears in the results of this test?
**Result** false

**Query** Recorded test call requested for COC(=O)C1[C@H](c2ccc3c(c2)OCO3)OC(=O)[C@]1(C(=O)OC)C(=O)c1ccc(OC)c(OC)c1 (some centres undefined)
**Result** false

**Query** Dear colleague, could you share the recorded outcome for "CCCC(=O)c1ccc(=O)n(C)c1" when you have a moment?
**Result** false

**Query** Assay result, entry COC(=O)[C@]12CC=C3O[C@@H]4OC5(CCCCC5)O[C@@H]4[C@H]3C1C(=O)C=CC2=O (some centres undefined) — outcome?
**Result** false

**Query** Please share the test call associated with "CCCCCCCCCc1c(Cl)nc(Cl)nc1Cl" .
**Result** false

**Query** I would be grateful if you could indicate the recorded call for "Oc1ccc(-c2nc(-c3cccnc3)c(-c3ccc(Cl)cc3)[nH]2)cc1" .
**Result** false

Source: ChEMBL document CHEMBL1201862
